Measured MIC, listed per entry.
# System: Staphylococcus aureus ATCC29213
# METHOD NOTES: Minimum Inhibitory Concentration (MIC) testing, broth microdilution, Staphylococcus aureus
# Format: cell-based
# EXPERIMENTAL CONTEXT: Staphylococcus aureus ATCC29213; read-out: Staphylococcus aureus MICs Activity

COMPOUND | MIC
CCCCCC#CCOc1cccc(C(N)=O)c1 [Example 31, 3-(2-Octynyloxy)benzenecarboxamide] | 16 to 64 µg/mL
N#CCOc1ccc(F)c(C(N)=O)c1F | > 64 µg/mL
CC/C=C\CCCCOc1cccc(C(N)=O)c1 [Example 52, 3-[(Z)-5-Octenyloxy]benzenecarboxamide] | < 8 µg/mL
CCCCCCOc1cc(F)cc(C(N)=O)c1 [Example 167, 3-Fluoro-5-hexyloxy benzamide] | 16 to 64 µg/mL
CC(Oc1ccc(F)c(C(N)=O)c1F)c1nc(-c2ccc(Cl)cc2)no1 (stereo not shown) | < 8 µg/mL
COc1ccc(-c2nc(COc3ccc(F)c(C(N)=O)c3F)sc2-c2ccccc2O)cc1 | < 8 µg/mL
NC(=O)c1c(F)ccc(OCc2nc3c(Cl)cccc3s2)c1F | 16 to 64 µg/mL
NC(=O)c1c(F)ccc(OCc2nc(Cc3ccccc3)no2)c1F | 16 to 64 µg/mL
NC(=O)c1cccc(OCc2cccc(O)c2)c1 | > 64 µg/mL
CCCCCCCCCCCOc1ccc(F)c(C(N)=O)c1 | 16 to 64 µg/mL
NC(=O)c1c(F)ccc(OCc2ccco2)c1F | 16 to 64 µg/mL
CC1CC1COc1cccc(C(N)=O)c1 (stereo not shown) | > 64 µg/mL
Cc1ccc2oc(COc3ccc(F)c(C(N)=O)c3F)nc2c1 | 16 to 64 µg/mL
Cc1nc(COc2ccc(F)c(C(N)=O)c2F)cs1 | 16 to 64 µg/mL
COc1ccc(-c2nc(COc3ccc(F)c(C(N)=O)c3F)c(C)o2)cc1 | < 8 µg/mL
CCCCCC#CCCOc1cccc(C(N)=O)c1 [Example 51, 3-(3-Nonynyloxy)benzenecarboxamide] | 16 to 64 µg/mL
C#CCCCCCCCCCOc1ccc(Cl)c(C(N)=O)c1 | < 8 µg/mL
NC(=O)c1ccnc(OCc2nc(-c3ccc(Cl)cc3)cs2)c1 | 16 to 64 µg/mL
CCCCOC(=O)COc1cccc(C(N)=O)c1F | 16 to 64 µg/mL

###

# Test system: Staphylococcus aureus ATCC29213
# METHOD NOTES: Minimum Inhibitory Concentration (MIC) testing, broth microdilution, Staphylococcus aureus
# Assay type: cell-based
# EXPERIMENTAL CONTEXT: Staphylococcus aureus ATCC29213; read-out: Staphylococcus aureus MICs Activity
READOUT LABEL: MIC

COMPOUND | READOUT LABEL | DATA VALUE
Cc1ccc2ccc(COc3ccc(F)c(C(N)=O)c3F)nc2c1 | MIC | < 8 µg/mL
CCCCCCCCCOc1ccc(F)c(C(N)=O)c1 [Example 70, 2-Fluoro-5-(nonyloxy)benzenecarboxamide] | MIC | < 8 µg/mL
NC(=O)c1c(F)ccc(OCc2nc(-c3cccs3)no2)c1F | MIC | < 8 µg/mL
C=CCc1ccc2sc(COc3ccc(F)c(C(N)=O)c3F)nc2c1 | MIC | < 8 µg/mL
CCOc1cccc(COc2ccc(F)c(C(N)=O)c2F)c1 | MIC | 16 to 64 µg/mL
COc1ccc(-c2nc(COc3ccc(F)c(C(N)=O)c3F)sc2-c2cccc(O)c2)cc1 | MIC | < 8 µg/mL
NC(=O)c1c(F)ccc(OCC2COc3ccccc3O2)c1F (stereo not shown) | MIC | 16 to 64 µg/mL
CCCc1sc(COc2ccc(F)c(C(N)=O)c2F)nc1-c1ccc(OC)cc1 | MIC | < 8 µg/mL
NC(=O)c1c(F)ccc(OCc2ccc3sccc3c2)c1F | MIC | 16 to 64 µg/mL
NC(=O)c1c(F)ccc(OCc2coc(-c3cccs3)n2)c1F | MIC | < 8 µg/mL
CCCc1ccc2sc(COc3ccc(F)c(C(N)=O)c3F)nc2c1 | MIC | < 8 µg/mL
CCCC/C=C\CCCCOc1ccc(F)c(C(N)=O)c1F | MIC | < 8 µg/mL
NC(=O)c1c(F)ccc(OCc2nc3cc(-c4ccc(O)cc4)ccc3s2)c1F | MIC | < 8 µg/mL
NC(=O)c1c(F)ccc(OCc2nc3cc(C4=CCCCC4)ccc3s2)c1F | MIC | 16 to 64 µg/mL
C=CCCCCCOc1cccc(C(N)=O)c1 [Example 17, 3-(6-Heptenyloxy)benzenecarboxamide] | MIC | 16 to 64 µg/mL
NC(=O)c1cc(OCc2nc(-c3ccc(Cl)cc3)cs2)ccc1F | MIC | < 8 µg/mL
Cc1ccc(-c2noc(COc3ccc(F)c(C(N)=O)c3F)n2)cc1 | MIC | < 8 µg/mL
NC(=O)c1c(F)ccc(OCc2nc(-c3ccc(O)cc3)cs2)c1F | MIC | < 8 µg/mL
NC(=O)c1c(F)ccc(OCc2nc(-c3cccnc3)no2)c1F | MIC | 16 to 64 µg/mL
COc1ccc(-c2nc(COc3ccc(F)c(C(N)=O)c3F)sc2-c2ccccc2N)cc1 | MIC | < 8 µg/mL
CCCCOC(=O)COc1cccc(C(N)=O)c1 | MIC | 16 to 64 µg/mL
NC(=O)c1c(F)ccc(OCc2noc(C=Cc3ccccc3)n2)c1F | MIC | 16 to 64 µg/mL
Cc1ccccc1-c1noc(COc2ccc(F)c(C(N)=O)c2F)n1 | MIC | < 8 µg/mL
NC(=O)c1cccc(OCCCCC/C=C\c2ccc(Cl)o2)c1 | MIC | < 8 µg/mL
Cc1cnc(COc2ccc(F)c(C(N)=O)c2F)s1 | MIC | > 64 µg/mL
COc1ccc(-c2nc(COc3ccc(F)c(C(N)=O)c3F)co2)cc1 | MIC | < 8 µg/mL
NC(=O)c1cccc(OCc2cccc(Br)c2)c1 [Example 171, 3-[(3-Bromobenzyl)oxy]benzenecarboxamide] | MIC | 16 to 64 µg/mL
CCCCCCCOc1cccc(C(N)=O)c1 [Example 24, 3-(Heptyloxy)benzenecarboxamide] | MIC | < 8 µg/mL
NC(=O)c1c(F)ccc(OCc2nc3cc(Br)ccc3s2)c1F | MIC | < 8 µg/mL
Cc1cncc(COc2cccc(C(N)=O)c2)c1 | MIC | > 64 µg/mL
COC(=O)c1sc(COc2ccc(F)c(C(N)=O)c2F)nc1-c1ccc(OC)cc1 | MIC | < 8 µg/mL
Cc1cccc(COc2ccc(F)c(C(N)=O)c2F)c1F | MIC | 16 to 64 µg/mL
Cl.NC(=O)c1c(F)ccc(OCc2nc(-c3ccc(N)cc3)no2)c1F | MIC | 16 to 64 µg/mL
Cc1cccc2sc(COc3ccc(F)c(C(N)=O)c3F)nc12 | MIC | 16 to 64 µg/mL
NC(=O)c1c(F)ccc(OCCCCO)c1F | MIC | 16 to 64 µg/mL
NC(=O)c1cccc(OCCCCCCc2ccccc2)c1 [Example 36, 3-[(6-Phenylhexyl)oxy]benzenecarboxamide] | MIC | > 64 µg/mL
C=CCc1sc(COc2ccc(F)c(C(N)=O)c2F)nc1-c1ccc(OC)cc1 | MIC | < 8 µg/mL

###

# Test system: Staphylococcus aureus ATCC29213
# METHOD NOTES: Minimum Inhibitory Concentration (MIC) testing, broth microdilution, Staphylococcus aureus
# Format: cell-based
# EXPERIMENTAL CONTEXT: Staphylococcus aureus ATCC29213; read-out: Staphylococcus aureus MICs Activity
Measured MIC, listed per entry.

COMPOUND | MIC
NC(=O)c1c(F)ccc(OCc2nc3cc(-c4ccccc4)ccc3s2)c1F [Example 114] | < 8 µg/mL
COc1ccc(-c2csc(COc3ccc(F)c(C(N)=O)c3F)n2)cc1 [Example 105] | < 8 µg/mL
NC(=O)c1cccc(OCc2nc3cc(Cl)ccc3s2)c1F [Example 219] | < 8 µg/mL
NC(=O)c1c(F)ccc(OCc2nc3ccccc3o2)c1F [Example 209] | > 64 µg/mL
NC(=O)c1c(F)ccc(OCc2noc(-c3cccs3)n2)c1F [Example 134] | 16 to 64 µg/mL
Cc1ccc2sc(COc3ccc(F)c(C(N)=O)c3F)nc2c1 [Example 148] | < 8 µg/mL
NC(=O)c1c(F)ccc(OCc2nc3cc(-c4ccncc4)ccc3s2)c1F [Example 232] | < 8 µg/mL
C#CCCCCCCCOc1cccc(C(N)=O)c1 [Example 65, 3-(8-Nonynyloxy)benzenecarboxamide] | < 8 µg/mL
CCCC/C=C/CCOc1cccc(C(N)=O)c1 [Example 40, 3-[(E)-3-Octenyloxy]benzenecarboxamide] | < 8 µg/mL

###

READOUT LABEL: melting point

COMPOUND | DATA VALUE
Cc1cncc(COc2cccc(C(N)=O)c2)c1 [Example 170] | 152 to 154 °C
NC(=O)c1c(F)ccc(OCc2cc3cc(C(F)(F)F)ccc3s2)c1F [Example 208] | 150 to 152 °C
C#CCCCCCCOC(=O)COc1ccc(F)c(C(N)=O)c1F [Example 90] | 130 to 132 °C
C#CCCCCCCCCOc1cccc(C(N)=O)c1 [Example 67, 3-(9-Decynyloxy)benzenecarboxamide] | 111 to 112 °C
COc1ccc2nc(COc3ccc(F)c(C(N)=O)c3F)sc2c1 [Example 224] | 190 to 192 °C
CCCCCCOC(=O)COc1ccc(F)c(C(N)=O)c1F [Example 89] | 108 °C
NC(=O)c1c(F)ccc(OCc2nc3cc(-c4ccncc4)ccc3s2)c1F [Example 232] | 255 to 258 °C
CCCCCCCCCOc1ccc(Cl)c(C(N)=O)c1F [Example 76] | 75 to 77 °C
CCCCOC(=O)CCCOc1ccc(F)c(C(N)=O)c1F [Example 181] | 53 to 55 °C
CCCc1ccc2nc(COc3ccc(F)c(C(N)=O)c3F)sc2c1 [Example 231] | 244 to 246 °C
NC(=O)c1cccc(OCCCCCCCc2ccsc2)c1 [Example 63] | 97 to 100 °C
CCc1cccc2sc(COc3ccc(F)c(C(N)=O)c3F)nc12 [Example 223] | 184 to 186 °C
N#CCCCCCCCCCOc1cccc(C(N)=O)c1 [Example 93, 3-[(9-Cyanononyl)oxy]benzenecarboxamide] | 96 to 97 °C
CCCCOC(=O)C=CCOc1ccc(F)c(C(N)=O)c1F [Example 180] | < 40 °C
NC(=O)c1cccc(OCCCCC/C=C\c2ccc(Cl)o2)c1 [Example 64] | 53 to 56 °C
CCCCCCCCCOc1ccc(F)c(C(N)=O)c1Cl [Example 78] | 64 to 66 °C
NC(=O)c1ccnc(OCc2nc3cc(Cl)ccc3s2)c1 [Example 222] | 220 to 222 °C
NC(=O)c1c(F)ccc(OCc2nc(-c3ccc(O)cc3)no2)c1F [Example 242] | 209 to 210 °C
NC(=O)c1c(F)ccc(OCc2nc3ccc(Cl)cc3s2)c1F [Example 227] | 190 to 191 °C
CCCCCCOc1ccc(F)c(C(N)=O)c1Cl [Example 77] | 66 to 68 °C
